# EXPERIMENT_DESCRIPTION: NCI Yeast Anticancer Drug Screen. Data for the mgt1 strain (AID 153)
# TEST_CONTEXT: S. cerevisiae mgt1 mutant growth inhibition; at 11.0 µM; active compounds read high
# Protocol: Growth inhibition of yeast strains with defined genetic alterations is measured as a screen for potential anti-cancer activity. Selected strains with alterations in DNA damage repair or cell cycle control were exposed to compounds and growth inhibition was measured relative to vehicle treated controls. The strain used in this assay is mgt1
The panel holds about 79,000 compounds, 15% with a hit somewhere; the sample as a whole holds those more often.
Would you mind labelling by growth inhibition? At or over 40% is 1, under is 0.

Is growth inhibition at least 40%? Consider `COc1ccc(/C=C2\CCc3ccccc3C2=O)cc1OC`
0

Is growth inhibition at least 40%? Consider `O=C(/C(=C/c1ccccc1)CBr)c1ccccc1`
1

Is growth inhibition at least 40%? Consider `C#CC1=CC(=O)C(OC)=CC1=O`
1
